- testedOn: T1, hCD22 fragment Bin 6, IVR6 (aa476-575), displayed on yeast cells (human, UniProt P20273 495-594)
- T1 construct: range 476-575; Range is counted on the mature ECD, not on the UniProt entry; on P20273 it would be 495-594 (my arithmetic); also called CD22 Sub-Domain 6; not shown: Aga2-HA display fusion partner of vector pPNL6; MYC tag
- T1 sequence (looked up): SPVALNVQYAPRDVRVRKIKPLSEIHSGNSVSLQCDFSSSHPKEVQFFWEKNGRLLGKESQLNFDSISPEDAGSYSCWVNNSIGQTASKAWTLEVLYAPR
- measurementDescription: yeast display cell ELISA, biotinylated sdAb 250 nM
quantity: OD450 (OD450)
Numbers only, in OD450.

Known results for binders:
### Prompt What does the record list as OD450 for hCD221ug-36 (VHH, single biotin at the VHH C-terminal (biotinylation signal sequence), llama VHH, expressed in E. coli TG1, IMAC purified, monomeric SEC fraction; also called VHH # 22; 4-hCD22 1ug-36) VHH: EVQLVDSGGGLVQAGGSLRVSCEASGITFSRAAMGWYRQRPGKERERVAVVNSDSSTIYADSVKGRFTISRDNAKNTVYLQMNSLEPEDTAVYYCWSPGFGSYWGQGTQVTVSS ?
### Response 2.97

### Prompt Input hCD221ug-13 (VHH, single biotin at the VHH C-terminal (biotinylation signal sequence), llama VHH, expressed in E. coli TG1, IMAC purified, monomeric SEC fraction; also called VHH # 21; 1-hCD22 1ug-13) VHH: QVQLVESGGGLVQAGDSLRLSCAGSGGSFSSVTMAWFRQAPGKDREFVAAITWSSPSTYYADSVKGRFTISRDNAKNTVYLQMNSLKPEDTAVYYCAGGRTGRGTSADTDEYNYWGQGTQVTVSS
### Response 0.433

### Prompt Input hCD221ug-80 (VHH, single biotin at the VHH C-terminal (biotinylation signal sequence), llama VHH, expressed in E. coli TG1, IMAC purified, monomeric SEC fraction; also called VHH # 1; 2-hCD22 1ug-80) VHH: QVQLVESGGGLVQPGGSLRLSCTFSGFTLDYYVMVWFRQAPGKEREAVSCITSDGVTYYADSVKGRFTISRDNAKNTVYLQMNRVKPEDTAVYYCAVDKPFYDGGIQYTCPVDFDSWGQGAQVTVSS
### Response 2.25

***
### Prompt What does the record list as OD450 for hCD22pas-64 (VHH, single biotin at the VHH C-terminal (biotinylation signal sequence), llama VHH, expressed in E. coli TG1, IMAC purified, monomeric SEC fraction; also called VHH # 25; 7-hCD22 pas-64) VHH: QVQLVESGGGLVQAGGSLRLSCAASGSTFSLNTMAWYRQAPGNQREYVAAASSDGYTNYADSVRGRFTISRDNDKNTMYLQMNSLRPEDTAVYYCTWGTGRFADYIYWGQGTQVTVSS ?
### Response 1.38

The reported measurements were obtained from patent US20230265185A1.
